Target: T1, human IGF2^1-67 (mature insulin-like growth factor 2) (human, UniProt P01344 25-91, biotinylated (site not stated) where immobilised on the chip (Tables 1-4))
T1 construct: mature; also called mature IGF2; biotinylated IGF2
T1 sequence (P01344 25-91): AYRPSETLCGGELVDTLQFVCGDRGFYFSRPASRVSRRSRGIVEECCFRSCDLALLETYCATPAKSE
Assay: SPR steady state, biotin-IGF2 on chip, pH 7.4
reported_metric: pKd
Give bare numbers, as −log10 of the molar value.

Answered cases to consult:
binder="domain 11^AB3 P1597H (receptor, See m5; also called AB3 + 62B (FG-P1597H)) MKSNEHDDCQVTNPSTGHLFDLSSLSGRAGFTAAYSKSGVVYMSICGENENCPPGVGACFGQTRISVGKANKRLRYVDQVLQLVYKDGSHCPSKSGLSYKSVISFVCRPEAGPTNRPMLISLDKQTCTLFFSWHTPLACEQATECSV" numeric_readout=8.75
binder="domain 11^AB5 P1597S (receptor, See m5) MKSNEHDDCQVTNPSTGHLFDLSSLSGRAGFTAAYAKGWGVYMSICGENENCPPGVGACFGQTRISVGKANKRLRYVDQVLQLVYKDGSSCPSKSGLSYKSVISFVCRPEAGPTNRPMLISLDKQTCTLFFSWHTPLACEQATECSV" numeric_readout=8.31
binder="domain 11^AB5 P1597N (receptor, See m5) MKSNEHDDCQVTNPSTGHLFDLSSLSGRAGFTAAYAKGWGVYMSICGENENCPPGVGACFGQTRISVGKANKRLRYVDQVLQLVYKDGSNCPSKSGLSYKSVISFVCRPEAGPTNRPMLISLDKQTCTLFFSWHTPLACEQATECSV" numeric_readout=8.27
binder="domain 11^AB5 Q1569R P1597H G1603K (receptor, See m5) MKSNEHDDCQVTNPSTGHLFDLSSLSGRAGFTAAYAKGWGVYMSICGENENCPPGVGACFGRTRISVGKANKRLRYVDQVLQLVYKDGSHCPSKSKLSYKSVISFVCRPEAGPTNRPMLISLDKQTCTLFFSWHTPLACEQATECSV" numeric_readout=8.70
binder="domain 11^AB5 Q1569R P1597K (receptor, See m5) MKSNEHDDCQVTNPSTGHLFDLSSLSGRAGFTAAYAKGWGVYMSICGENENCPPGVGACFGRTRISVGKANKRLRYVDQVLQLVYKDGSKCPSKSGLSYKSVISFVCRPEAGPTNRPMLISLDKQTCTLFFSWHTPLACEQATECSV" numeric_readout=8.77

Provide pKd for all items below, preserving their order.
1. domain 11^AB5 P1597Q (receptor, See m5) MKSNEHDDCQVTNPSTGHLFDLSSLSGRAGFTAAYAKGWGVYMSICGENENCPPGVGACFGQTRISVGKANKRLRYVDQVLQLVYKDGSQCPSKSGLSYKSVISFVCRPEAGPTNRPMLISLDKQTCTLFFSWHTPLACEQATECSV
2. domain 11^AB3 P1597K S1602H (receptor, See m5) MKSNEHDDCQVTNPSTGHLFDLSSLSGRAGFTAAYSKSGVVYMSICGENENCPPGVGACFGQTRISVGKANKRLRYVDQVLQLVYKDGSKCPSKHGLSYKSVISFVCRPEAGPTNRPMLISLDKQTCTLFFSWHTPLACEQATECSV

Result:
1. 8.35
2. 8.27
